# Assay overview: Hematology assays in cynomolgus monkeys (Example 45)
# Type: in vivo
# Test parameters: day 8; escalating dose regimen
Consider the following substances and their measured MCV readings.
Answers without a unit are incomplete; give the number and then its unit.

The cases that follow already have their MCV on record.
{"Substance": "ISIS 417002: MOE gapmer, nucleobases 1275 to 1318 of SEQ ID NO: 1 (Table 8) (antisense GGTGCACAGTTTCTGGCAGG; MOE gapmer, wing and gap sizes not given here)", "MCV": "79 fL"}
{"Substance": "ISIS 416850: MOE gapmer, nucleobases 1275 to 1318 of SEQ ID NO: 1 (Table 8) (antisense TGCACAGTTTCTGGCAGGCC; MOE gapmer, wing and gap sizes not given here)", "MCV": "80 fL"}
{"Substance": "ISIS 416858: MOE gapmer, nucleobases 1275 to 1318 of SEQ ID NO: 1 (Table 8) (antisense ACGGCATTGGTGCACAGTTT; MOE gapmer, wing and gap sizes not given here)", "MCV": "77 fL"}
{"Substance": "ISIS 416864: MOE gapmer, nucleobases 1275 to 1318 of SEQ ID NO: 1 (Table 8) (antisense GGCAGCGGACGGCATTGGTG; MOE gapmer, wing and gap sizes not given here)", "MCV": "78 fL"}

# next substance below
What measured MCV goes with ISIS 416838: MOE gapmer, nucleobases 1018 to 1042 of SEQ ID NO: 1 (Table 6) (antisense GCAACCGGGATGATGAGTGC; MOE gapmer, wing and gap sizes not given here) ?
77 fL
